Data origin, for the record: patent US20230097573A1

- systemTested: T1, hFcRn with a His-tag (human, UniProt P55899 24-297; P61769 21-119)
- T1 construct: It may be the same product as m1; also called huFcRn (His tagged molecule, BPS); not shown: His-tag
- T1 sequence (P55899 24-297 limits assumed, chain 1 of 2): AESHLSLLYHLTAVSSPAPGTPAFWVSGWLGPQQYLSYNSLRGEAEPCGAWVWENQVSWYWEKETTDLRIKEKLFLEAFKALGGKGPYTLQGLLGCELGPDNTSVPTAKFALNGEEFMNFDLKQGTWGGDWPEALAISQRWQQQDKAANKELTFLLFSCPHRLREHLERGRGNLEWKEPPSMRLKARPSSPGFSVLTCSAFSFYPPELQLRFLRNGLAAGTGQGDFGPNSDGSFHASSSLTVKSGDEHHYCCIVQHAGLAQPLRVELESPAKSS
- T1 sequence (P61769 21-119 limits assumed, chain 2 of 2): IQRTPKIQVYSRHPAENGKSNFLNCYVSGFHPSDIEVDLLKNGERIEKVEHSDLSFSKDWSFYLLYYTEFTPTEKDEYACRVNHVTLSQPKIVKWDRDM
- protocolSummary: BLI (Octet), His-hFcRn on Ni-NTA biosensor, Affimer 40 nM, pH 6.0, 1:1 model
assayMetric: Kd (nM)
Write the value in nM as a bare number.

Use these answered entries as a reference point.
FcRn-18 (designed binder, AFFIMER (stefin A variant)) MIPRGLSEAKPATPEIQEIVDKVKPQLEEKTNETYGKLEAVQYKTQVLAETPHERHKTSTNYYIKVRAGDNKYMHLKVFNGPKRWLKHHAHADRVLTGYQVDKNKDDELTGFHHHHHH	16
FcRn-109 (designed binder, AFFIMER (stefin A variant)) MIPRGLSEAKPATPEIQEIVDKVKPQLEEKTNETYGKLEAVQYKTQVLARPHNRDSHRSTNYYIKVRAGDNKYMHLKVFNGPDRKHRKHWHADRVLTGYQVDKNKDDELTGFHHHHHH	9.27
FcRn-88 (designed binder, AFFIMER (stefin A variant)) MIPRGLSEAKPATPEIQEIVDKVKPQLEEKTNETYGKLEAVQYKTQVLAHHTKHHSRWSTNYYIKVRAGDNKYMHLKVFNGPVNHISHAPIADRVLTGYQVDKNKDDELTGFHHHHHH	18.7

Please examine the following record next.
Entry FcRn-176 (designed binder, AFFIMER (stefin A variant)) MIPRGLSEAKPATPEIQEIVDKVKPQLEEKTNETYGKLEAVQYKTQVLAGRHHESHKSSTNYYIKVRAGDNKYMHLKVFNGPFQHKLHKHHADRVLTGYQVDKNKDDELTGFHHHHHH , Kd reported as 10.5
